measurementTarget: T1, Acro SARS-CoV-2 (COVID-19) S1 protein (SARS-CoV-2, UniProt P0DTC2 16-685)
T1 construct: also called SARS-CoV-2 S1
assayText: SPR
resultType: Kd (nM)
Response body: numeric value in nM, unit text excluded.

>>> numericreadout("variant 6-60 (Fc fusion) VHH: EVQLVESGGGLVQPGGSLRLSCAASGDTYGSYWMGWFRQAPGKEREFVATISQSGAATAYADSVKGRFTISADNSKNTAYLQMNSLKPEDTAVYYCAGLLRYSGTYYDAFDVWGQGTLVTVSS")
20.1

Any idea what Kd was measured for variant 6-22 (Fc fusion) VHH: EVQLVESGGGLVQPGGSLRLSCAASGRTFSEVVMGWFRQAPGKEREFVATIHSSGSTSYADSVKGRFTISADNSKNTAYLQMNSLKPEDTAVYYCVRVTSDYSMDSWGQGTLVTVSS ? 25.6

Would you kindly share the measured Kd for variant 6-52 (Fc fusion) VHH: EVQLVESGGGLVQPGGSLRLSCAASGDTYGSYWMGWFRQAPGKEREVVAAITSGGSTVYADSVKGRFTISADNSKNTAYLQMNSLKPEDTAVYYCARVDSRFDYWGQGTLVTVSS ? 31.2

What does the data say about its Kd? Entry: variant 6-20 (Fc fusion) VHH: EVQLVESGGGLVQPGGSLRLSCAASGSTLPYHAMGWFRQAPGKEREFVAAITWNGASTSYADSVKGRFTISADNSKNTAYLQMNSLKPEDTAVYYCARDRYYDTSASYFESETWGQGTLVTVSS 20.9
